# key: entry, value: shrunken log2 fold change
Test system: Escherichia coli TOP10
Assay: shrunken log2 fold change of peptide-encoding DNA abundance (4.5 h post-induction vs induction); higher = less antimicrobial activity (less host growth inhibition)
Conditions: time post-induction: 4.5 h; library: site-saturation at positions 5, 18, 19, 20

- Seq: "RRIRIRPPRLPRPRPRPKIGPRP"
  shrunken log2 fold change: -0.0343
- Seq: "RRIRQRPPRLPRPRPRPMMRPRP"
  shrunken log2 fold change: 0.109
- Seq: "RRIRQRPPRLPRPRPRPTMEPRP"
  shrunken log2 fold change: -0.0535
- Seq: "RRIRPRPPRLPRPRPRPLMGPRP"
  shrunken log2 fold change: -0.0395
- Seq: "RRIRWRPPRLPRPRPRPLNTPRP"
  shrunken log2 fold change: 0.0456
- Seq: "RRIRHRPPRLPRPRPRPQRNPRP"
  shrunken log2 fold change: -0.223
- Seq: "RRIRIRPPRLPRPRPRPNRQPRP"
  shrunken log2 fold change: -0.56
- Seq: "RRIRHRPPRLPRPRPRPAITPRP"
  shrunken log2 fold change: -0.0845
- Seq: "RRIRERPPRLPRPRPRPGEHPRP"
  shrunken log2 fold change: 0.0251
- Seq: "RRIRIRPPRLPRPRPRPGTGPRP"
  shrunken log2 fold change: 0.0659
- Seq: "RRIRLRPPRLPRPRPRPTECPRP"
  shrunken log2 fold change: -0.243
- Seq: "RRIRTRPPRLPRPRPRPTWKPRP"
  shrunken log2 fold change: 0.0204
- Seq: "RRIRGRPPRLPRPRPRPALLPRP"
  shrunken log2 fold change: 1.14
- Seq: "RRIRLRPPRLPRPRPRPRCCPRP"
  shrunken log2 fold change: 0.0851
- Seq: "RRIRKRPPRLPRPRPRPMIMPRP"
  shrunken log2 fold change: -0.0451
- Seq: "RRIRARPPRLPRPRPRPIANPRP"
  shrunken log2 fold change: 0.103
- Seq: "RRIRGRPPRLPRPRPRPRQNPRP"
  shrunken log2 fold change: 0.768
- Seq: "RRIRRRPPRLPRPRPRPVYFPRP"
  shrunken log2 fold change: -0.267
- Seq: "RRIRMRPPRLPRPRPRPGCQPRP"
  shrunken log2 fold change: 0.719
- Seq: "RRIRKRPPRLPRPRPRPPLDPRP"
  shrunken log2 fold change: 0.809
- Seq: "RRIRMRPPRLPRPRPRPANLPRP"
  shrunken log2 fold change: 0.013
- Seq: "RRIRWRPPRLPRPRPRPEIDPRP"
  shrunken log2 fold change: 0.0771
- Seq: "RRIRFRPPRLPRPRPRPNQRPRP"
  shrunken log2 fold change: 0.269
- Seq: "RRIRRRPPRLPRPRPRPFKHPRP"
  shrunken log2 fold change: -0.212
- Seq: "RRIRTRPPRLPRPRPRPKFNPRP"
  shrunken log2 fold change: -0.375
- Seq: "RRIRYRPPRLPRPRPRPRPQPRP"
  shrunken log2 fold change: 0.438
- Seq: "RRIRTRPPRLPRPRPRPLQYPRP"
  shrunken log2 fold change: -0.0374
- Seq: "RRIRDRPPRLPRPRPRPIHPPRP"
  shrunken log2 fold change: -0.125
- Seq: "RRIRARPPRLPRPRPRPYNVPRP"
  shrunken log2 fold change: -0.284
- Seq: "RRIRERPPRLPRPRPRPKIFPRP"
  shrunken log2 fold change: 0.0686
- Seq: "RRIRFRPPRLPRPRPRPITTPRP"
  shrunken log2 fold change: -0.198
- Seq: "RRIRPRPPRLPRPRPRPTYFPRP"
  shrunken log2 fold change: -0.179

---

System: Escherichia coli TOP10;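 note: peptides expressed intracellularly from a pBAD plasmid library in pooled LB shake-flask culture, induced with 0.3% L-arabinose, DNA abundance read by NGS, three biological replicates, DESeq2 with apeglm shrinkage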
Assay: shrunken log2 fold change of peptide-encoding DNA abundance (4.5 h post-induction vs induction); higher = less antimicrobial activity (less host growth inhibition)
Conditions: time post-induction: 4.5 h; library: site-saturation at positions 5, 18, 19, 20
# key: entry, value: shrunken log2 fold change

- Seq: "RRIRSRPPRLPRPRPRPMRHPRP"
  Assayed System: "Escherichia coli TOP10"
  shrunken log2 fold change: 3.44
- Seq: "RRIRWRPPRLPRPRPRPQSIPRP"
  Assayed System: "Escherichia coli TOP10"
  shrunken log2 fold change: -0.584
- Seq: "RRIRCRPPRLPRPRPRPNKYPRP"
  Assayed System: "Escherichia coli TOP10"
  shrunken log2 fold change: -0.324
- Seq: "RRIRERPPRLPRPRPRPHQDPRP"
  Assayed System: "Escherichia coli TOP10"
  shrunken log2 fold change: -0.0312
- Seq: "RRIRWRPPRLPRPRPRPPKCPRP"
  Assayed System: "Escherichia coli TOP10"
  shrunken log2 fold change: 0.156
- Seq: "RRIRKRPPRLPRPRPRPIPRPRP"
  Assayed System: "Escherichia coli TOP10"
  shrunken log2 fold change: 1.3
- Seq: "RRIRERPPRLPRPRPRPSVPPRP"
  Assayed System: "Escherichia coli TOP10"
  shrunken log2 fold change: -0.235
- Seq: "RRIRHRPPRLPRPRPRPTSQPRP"
  Assayed System: "Escherichia coli TOP10"
  shrunken log2 fold change: -0.00232
- Seq: "RRIRVRPPRLPRPRPRPGMRPRP"
  Assayed System: "Escherichia coli TOP10"
  shrunken log2 fold change: 0.565
- Seq: "RRIRCRPPRLPRPRPRPDYLPRP"
  Assayed System: "Escherichia coli TOP10"
  shrunken log2 fold change: 0.0148
- Seq: "RRIRQRPPRLPRPRPRPYSQPRP"
  Assayed System: "Escherichia coli TOP10"
  shrunken log2 fold change: -0.195
- Seq: "RRIRPRPPRLPRPRPRPHLYPRP"
  Assayed System: "Escherichia coli TOP10"
  shrunken log2 fold change: -0.192
- Seq: "RRIRERPPRLPRPRPRPPRFPRP"
  Assayed System: "Escherichia coli TOP10"
  shrunken log2 fold change: 0.26
- Seq: "RRIRARPPRLPRPRPRPRMVPRP"
  Assayed System: "Escherichia coli TOP10"
  shrunken log2 fold change: 0.686
- Seq: "RRIRRRPPRLPRPRPRPYYWPRP"
  Assayed System: "Escherichia coli TOP10"
  shrunken log2 fold change: -0.0449
- Seq: "RRIRTRPPRLPRPRPRPQSRPRP"
  Assayed System: "Escherichia coli TOP10"
  shrunken log2 fold change: -0.0689
- Seq: "RRIRVRPPRLPRPRPRPSPKPRP"
  Assayed System: "Escherichia coli TOP10"
  shrunken log2 fold change: 0.24
- Seq: "RRIRYRPPRLPRPRPRPWDVPRP"
  Assayed System: "Escherichia coli TOP10"
  shrunken log2 fold change: -0.114
- Seq: "RRIRARPPRLPRPRPRPDSIPRP"
  Assayed System: "Escherichia coli TOP10"
  shrunken log2 fold change: -0.0582
- Seq: "RRIRQRPPRLPRPRPRPHILPRP"
  Assayed System: "Escherichia coli TOP10"
  shrunken log2 fold change: -0.361
- Seq: "RRIRKRPPRLPRPRPRPDAIPRP"
  Assayed System: "Escherichia coli TOP10"
  shrunken log2 fold change: 0.889
- Seq: "RRIRIRPPRLPRPRPRPGPCPRP"
  Assayed System: "Escherichia coli TOP10"
  shrunken log2 fold change: 0.255
- Seq: "RRIRWRPPRLPRPRPRPPFGPRP"
  Assayed System: "Escherichia coli TOP10"
  shrunken log2 fold change: 0.274
- Seq: "RRIRTRPPRLPRPRPRPTTFPRP"
  Assayed System: "Escherichia coli TOP10"
  shrunken log2 fold change: -0.012
- Seq: "RRIRERPPRLPRPRPRPDFMPRP"
  Assayed System: "Escherichia coli TOP10"
  shrunken log2 fold change: 0.0144
- Seq: "RRIRHRPPRLPRPRPRPPEKPRP"
  Assayed System: "Escherichia coli TOP10"
  shrunken log2 fold change: -0.00804
- Seq: "RRIRDRPPRLPRPRPRPHERPRP"
  Assayed System: "Escherichia coli TOP10"
  shrunken log2 fold change: 0.0603
- Seq: "RRIRHRPPRLPRPRPRPRYDPRP"
  Assayed System: "Escherichia coli TOP10"
  shrunken log2 fold change: -0.0205
- Seq: "RRIRLRPPRLPRPRPRPCNDPRP"
  Assayed System: "Escherichia coli TOP10"
  shrunken log2 fold change: -0.101
- Seq: "RRIRWRPPRLPRPRPRPTSKPRP"
  Assayed System: "Escherichia coli TOP10"
  shrunken log2 fold change: -0.0975
- Seq: "RRIRCRPPRLPRPRPRPMEGPRP"
  Assayed System: "Escherichia coli TOP10"
  shrunken log2 fold change: -0.00776
- Seq: "RRIRQRPPRLPRPRPRPNDMPRP"
  Assayed System: "Escherichia coli TOP10"
  shrunken log2 fold change: -0.296
